Hi there, I'd appreciate the recorded pIC50 for every entry that follows.
Biological target: PDE4 (Homo sapiens)
Sequence (Q08499 whole entry): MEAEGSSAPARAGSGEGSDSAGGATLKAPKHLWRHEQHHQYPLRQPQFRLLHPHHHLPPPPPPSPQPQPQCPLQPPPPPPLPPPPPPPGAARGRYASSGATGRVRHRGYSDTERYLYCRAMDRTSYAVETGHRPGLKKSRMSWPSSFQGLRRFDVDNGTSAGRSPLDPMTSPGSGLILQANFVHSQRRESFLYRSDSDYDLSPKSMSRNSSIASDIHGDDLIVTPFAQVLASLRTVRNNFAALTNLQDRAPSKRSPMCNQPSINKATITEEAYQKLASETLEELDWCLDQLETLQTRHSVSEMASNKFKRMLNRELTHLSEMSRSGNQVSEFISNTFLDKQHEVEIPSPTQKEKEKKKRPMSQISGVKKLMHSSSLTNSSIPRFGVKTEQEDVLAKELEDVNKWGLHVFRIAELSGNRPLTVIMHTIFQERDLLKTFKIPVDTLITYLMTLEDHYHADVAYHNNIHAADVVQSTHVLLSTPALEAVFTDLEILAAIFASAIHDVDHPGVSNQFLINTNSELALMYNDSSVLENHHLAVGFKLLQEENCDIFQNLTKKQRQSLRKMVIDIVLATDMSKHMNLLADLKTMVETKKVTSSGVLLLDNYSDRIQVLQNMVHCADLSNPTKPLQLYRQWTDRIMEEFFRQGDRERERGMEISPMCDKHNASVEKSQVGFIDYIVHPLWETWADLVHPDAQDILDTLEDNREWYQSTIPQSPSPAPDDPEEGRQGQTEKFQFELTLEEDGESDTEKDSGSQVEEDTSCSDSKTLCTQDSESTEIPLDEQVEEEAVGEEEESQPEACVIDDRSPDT
Assay: In-vitro assay for PDE4 enzymes, real-time enzyme-coupled spectrophotometric assay (Table 9)
Format: biochemical
Conditions: human PDE4D; activity class, Table 9; read-out: hPDE4D
pIC50: −log10 of the molar value. Structures can show the parent of a compound that is named as a salt.

Identify measured pIC50 corresponding to COc1ccc(Cc2ccc(NC(N)=O)cc2)c(F)c1-c1cccc(Br)c1
> 5.30

Identify measured pIC50 corresponding to COc1ccc(Cc2ccc(C(C)(C)N)nc2)cc1-c1cccc(Cl)c1 [P-600, hydrochloride]
> 5.30

Identify measured pIC50 corresponding to COc1ccc(Cn2cncc2C(N)=O)c(F)c1-c1cccc(Cl)c1
> 5.30

Identify measured pIC50 corresponding to COc1ccc(Cc2ccc(NC(=O)NC3CCCO3)cc2)cc1-c1cccc(Cl)c1 (stereo not shown)
> 5.30

Identify measured pIC50 corresponding to COc1ccc(Cc2cccc(CN)c2)cc1-c1cccc([N+](=O)[O-])c1
4.70 to 5.30

Identify measured pIC50 corresponding to COc1ccc(CN2CCCC2=O)cc1-c1cccc([N+](=O)[O-])c1
> 5.30

Identify measured pIC50 corresponding to COc1ccc(Cc2ccc(N(C)C)cc2)c(F)c1-c1cccc(Cl)c1
> 5.30

Identify measured pIC50 corresponding to COc1ccc(COC2CCCC2)nc1-c1cccc([N+](=O)[O-])c1
4.70 to 5.30

Identify measured pIC50 corresponding to CCOc1ccc(Cc2ccc(OC)c(-c3cccc(Cl)c3)c2F)s1
> 5.30

Identify measured pIC50 corresponding to COc1ccc(Cc2ccc(NC(N)=O)cc2)c(F)c1-c1cccc([N+](=O)[O-])c1
> 5.30

Identify measured pIC50 corresponding to COc1ccc(Cc2cccc(O)c2)c(F)c1-c1cccc(Cl)c1
> 5.30

Identify measured pIC50 corresponding to COc1ccc(Cc2ccc(NS(C)(=O)=O)cc2)c(F)c1-c1cccc(Br)c1
> 5.30

Identify measured pIC50 corresponding to COC(=O)c1cccc(-c2cc(Cn3cncn3)ccc2OC)c1
> 5.30

Identify measured pIC50 corresponding to COc1ccc(Cc2ccc(CN)cc2)c(F)c1-c1cccc([N+](=O)[O-])c1
> 5.30

Identify measured pIC50 corresponding to COc1ccc(Cn2cncn2)nc1-c1cccc(C(F)(F)F)c1
4.70 to 5.30

Identify measured pIC50 corresponding to COc1ccc(CC2CCCS2)c(F)c1-c1cccc([N+](=O)[O-])c1 (stereo not shown) [P-128]
> 5.30

Identify measured pIC50 corresponding to COc1ccc(Cc2cnc(NS(C)(=O)=O)nc2)c(F)c1-c1cccc(C(C)=O)c1
> 5.30

Identify measured pIC50 corresponding to COc1ccc(COC(C)C)nc1-c1cccc([N+](=O)[O-])c1
4.70 to 5.30

Identify measured pIC50 corresponding to COc1ccc(Cc2cnc(N3CC(O)C3)nc2)c(F)c1-c1cccc(C#N)c1
> 5.30

---

Molecular target: UniProt Q08499
Assay: In-vitro assay for PDE4 enzymes, real-time enzyme-coupled spectrophotometric assay (Table 9)
Format: biochemical
Settings: human PDE4D; activity class, Table 9; read-out: hPDE4D
Counter-ions that a name gives are not always drawn.
Hi there, I'd appreciate the recorded IC50 for every entry that follows.

Identify measured IC50 corresponding to COc1ccc(Cc2ccc(NS(C)(=O)=O)nc2)c(F)c1-c1cccc(Cl)c1
< 5 µM

Identify measured IC50 corresponding to CCNC(=O)Nc1ccc([S+]([O-])c2ccc(OC)c(-c3cccc(Cl)c3)c2)cc1 (stereo not drawn)
< 5 µM

Identify measured IC50 corresponding to CNC(=O)NCc1ccc(Cc2ccc(OC)c(-c3cccc(Cl)c3)c2)cn1 [P-593, hydrochloride]
< 5 µM

Identify measured IC50 corresponding to COc1ccc(Cc2c(C)n[nH]c2C)cc1-c1cccc([N+](=O)[O-])c1
< 5 µM

Identify measured IC50 corresponding to COc1ccc(Cc2ccc(NC(=O)CN(C)C)cc2)c(F)c1-c1cccc([N+](=O)[O-])c1
< 5 µM

Identify measured IC50 corresponding to CC(=O)Nc1ccc(Cc2ccc(OC(F)F)c(-c3cccc(Br)c3)c2F)cc1
< 5 µM

Identify measured IC50 corresponding to CCOC(=O)Cn1nc(C)c(Cc2ccc(OC)c(-c3cccc([N+](=O)[O-])c3)c2)c1C
< 5 µM

Identify measured IC50 corresponding to NC(=O)Nc1ccc(Cc2ccc(OC3COC3)c(-c3cccc(Cl)c3)c2)cc1
< 5 µM

Identify measured IC50 corresponding to COc1ccc(Cc2ccc(NC(=O)CN)cc2)cc1-c1cccc([N+](=O)[O-])c1
< 5 µM

Identify measured IC50 corresponding to COc1ccc(Cc2cnc(N3CC(O)C3)nc2)c(F)c1-c1cccc(Cl)c1
< 5 µM

Identify measured IC50 corresponding to COc1ccc(Cc2ccc(Nc3nccn3C)cc2)cc1-c1cccc(Cl)c1
< 5 µM

Identify measured IC50 corresponding to COc1ccc(COc2ccc([N+](=O)[O-])cc2)c(F)c1-c1cccc(Cl)c1
5 to 20 µM

Identify measured IC50 corresponding to COc1ccc(Cc2ccc(N(C)C)nc2)c(F)c1-c1cccc(C(C)=O)c1
< 5 µM

Identify measured IC50 corresponding to COc1ccc(Cc2ccc3cnc(C(N)=O)n3c2)c(F)c1-c1cccc(Cl)c1
< 5 µM

Identify measured IC50 corresponding to CCNC(=O)Nc1ccc(S(=O)(=O)c2ccc(OC)c(-c3cccc(Cl)c3)c2)cc1
< 5 µM

Identify measured IC50 corresponding to COc1ccc(Cc2ccc(F)cc2)cc1-c1ccc2c(c1)OC(F)(F)O2
< 5 µM

Identify measured IC50 corresponding to COc1ccc(COC2=CC(=O)CC2)cc1-c1cccc([N+](=O)[O-])c1
< 5 µM

Identify measured IC50 corresponding to COc1ccc(Oc2ccc(=O)[nH]n2)cc1-c1cccc([N+](=O)[O-])c1
< 5 µM

Identify measured IC50 corresponding to COc1ccc(Cc2ccc(CN)nc2)cc1-c1cccc(Cl)c1 [P-591, hydrochloride]
< 5 µM

Identify measured IC50 corresponding to COc1ccc(Cc2ccc(N3CC(O)C3)nc2)c(F)c1-c1cccc(Cl)c1
< 5 µM

Identify measured IC50 corresponding to CN(C)CCOc1ccc(Cc2ccc(NC(N)=O)cc2)cc1-c1cccc(Cl)c1
5 to 20 µM

Identify measured IC50 corresponding to CCNC(=O)Nc1ncc(Cc2ccc(OC)c(-c3cccc(Cl)c3)c2F)cn1
< 5 µM

Identify measured IC50 corresponding to COc1ccc(C=Cc2ccc(F)cc2)c(F)c1-c1cccc(Cl)c1
5 to 20 µM

Identify measured IC50 corresponding to COc1ccc(Cc2cnc(O[C@@H]3CCN(C)C3)nc2)c(F)c1-c1cccc(Cl)c1
< 5 µM

Identify measured IC50 corresponding to COc1ccc(Sc2ccc(N)cc2)cc1-c1cccc(Cl)c1
< 5 µM

Identify measured IC50 corresponding to COc1ccc([C@](C)(O)c2ccc(NC(C)=O)cc2)c(F)c1-c1cccc(Cl)c1 (single isomer, unassigned)
5 to 20 µM

Identify measured IC50 corresponding to COc1ccc(Cc2ccc(N3CCN(C)C3=O)nc2)c(F)c1-c1cccc(Cl)c1
< 5 µM

Identify measured IC50 corresponding to COc1ccc(Cc2ccc(F)cc2)c(F)c1-c1cccc(Cl)c1
< 5 µM

Identify measured IC50 corresponding to [2H]C(O)(c1ccc(NC(N)=O)cc1)c1ccc(OC)c(-c2cccc(Cl)c2)c1 (stereo not drawn)
5 to 20 µM

Identify measured IC50 corresponding to CCNC(=O)Nc1ccc(Cc2ccc(OC)c(-c3cccc(Cl)c3)n2)cn1 [P-386, hydrochloride]
< 5 µM

Identify measured IC50 corresponding to COc1ccc(Cc2ccc(Nc3nccs3)cc2)c(F)c1-c1cccc(Cl)c1
< 5 µM

Identify measured IC50 corresponding to CCNc1ccc(Cc2ccc(OC)c(-c3cccc(Cl)c3)c2)cc1 [P-247, HCl salt]
< 5 µM

Identify measured IC50 corresponding to COc1ccc(Cc2ccc(N3CCNCC3)nc2)c(F)c1-c1cccc(Cl)c1
5 to 20 µM

Identify measured IC50 corresponding to COc1ccc(Cc2ccc(NC(=O)CN)cc2)c(F)c1-c1cccc(Cl)c1
< 5 µM

Identify measured IC50 corresponding to COc1ccc(Cc2cccc(NC(N)=O)c2)cc1-c1cccc(Cl)c1
< 5 µM

Identify measured IC50 corresponding to COc1ccc(Cc2ccc(=O)[nH]n2)cc1-c1cccc([N+](=O)[O-])c1
< 5 µM
